Assay: Displacement of [125I]Ang 2 from AT2 receptor in pig uterus membranes
Type: cell membranes, Sus scrofa, Membrane
Could you please report measured pKi for the items listed next?
Remember, pKi is on a log scale: it is -log10 of the molar concentration.

Prompt: // pKi lookup, key: "CCCCOC(=O)NS(=O)(=O)c1sc(CC(C)C)cc1-c1ccc(CN(CC)C(C)=O)cc1"
Response: 6.90

Prompt: Fill in the blank: the reported pKi of "CCCCOC(=O)NS(=O)(=O)c1sc(CC(C)C)cc1-c1ccc(CC(=O)N2CCSC2)cc1" is ____.
Response: 6.88

Prompt: Given the compound "CCCCOC(=O)NS(=O)(=O)c1sc(CC(C)C)cc1-c1ccc(CN(C(C)=O)c2ccc(C)cc2)cc1" , what is its reported pKi?
Response: 7.22

Prompt: What pKi value was documented for this compound, "CCCCOC(=O)NS(=O)(=O)c1sc(CC(C)C)cc1-c1ccc(CN(C(=O)c2ccccc2)c2ccc(C)cc2)cc1" ?
Response: 7.34

---

Assay: Displacement of [125I]Ang 2 from AT2 receptor in pig uterus membranes
Assay type: cell membranes, Sus scrofa, Membrane
attribute-measured: Ki

Prompt: What value of Ki has been recorded for this entry: "CCCCOC(=O)NS(=O)(=O)c1sc(CC(C)C)cc1-c1ccc(CN(C)CC#N)cc1"
Response: > 10000 nM

Prompt: Please give the measured Ki for this compound: "CCCCOC(=O)NS(=O)(=O)c1sc(CC(C)C)cc1-c1ccc(CN(C)C)cc1"
Response: > 10000 nM

Prompt: // lookup Ki for "CCCCOC(=O)NS(=O)(=O)c1sc(CC(C)C)cc1-c1ccc(CC(N)=O)cc1"
Response: 51 nM

Prompt: Return reported Ki; argument: "CCCCOC(=O)NS(=O)(=O)c1sc(CC(C)C)cc1-c1ccc(CN(Cc2ccccc2)C(=O)CCCC)cc1"
Response: 84 nM

Prompt: // Ki lookup, key: "CCCCOC(=O)NS(=O)(=O)c1sc(CC(C)C)cc1-c1ccc(CN(C)C(=O)CCCC)cc1"
Response: 12 nM

Prompt: What value of Ki has been reported for the following compound? "CCCCOC(=O)NS(=O)(=O)c1sc(CC(C)C)cc1-c1ccc(CN(C)C(C)=O)cn1"
Response: > 10000 nM

Prompt: Please give the measured Ki for this compound: "CCCCCCNC(=O)Cc1ccc(-c2cc(CC(C)C)sc2S(=O)(=O)NC(=O)OCCCC)cc1"
Response: 158 nM

Prompt: Tell me the measured Ki of "CCCCOC(=O)NS(=O)(=O)c1sc(CC(C)C)cc1-c1ccc(CC(=O)NCc2ccccc2)cc1" , please.
Response: 221 nM

Prompt: Any idea what Ki was measured for "CCCCOC(=O)NS(=O)(=O)c1sc(CC(C)C)cc1-c1ccc(CC(=O)N(C)C)cc1" ?
Response: 7 nM
